test: Blood concentration of TE-031 after oral administration to Beagle dogs (bioassay method); assay type: in vivo; details: dog, male Beagle dogs, 100 mg as TE-031, read-out: area below the blood level curve
Endpoint Label: AUC

{"columns": ["Molecule", "Reported Measurement"],
 "data": [
  ["CC[C@H]1OC(=O)[C@H](C)[C@@H](O[C@H]2C[C@@](C)(OC)[C@@H](O)[C@H](C)O2)[C@H](C)[C@@H](O[C@@H]2O[C@H](C)C[C@H](N(C)C)[C@H]2O)[C@](C)(OC)C[C@@H](C)C(=O)[C@H](C)[C@@H](O)[C@]1(C)O [bulk, 6-O-methylerythromycin A]", "42.4 µg·h/mL"]
]}

====

experiment: Blood concentration of TE-031 after oral administration to Beagle dogs (bioassay method); assay type: in vivo; settings: dog, male Beagle dogs, 100 mg as TE-031, read-out: time of highest blood level
Endpoint Label: Tmax

{"columns": ["Compound", "Endpoint Label", "Reported Measurement"],
 "data": [
  ["CC[C@H]1OC(=O)[C@H](C)[C@@H](O[C@H]2C[C@@](C)(OC)[C@@H](O)[C@H](C)O2)[C@H](C)[C@@H](O[C@@H]2O[C@H](C)C[C@H](N(C)C)[C@H]2O)[C@](C)(OC)C[C@@H](C)C(=O)[C@H](C)[C@@H](O)[C@]1(C)O [bulk, 6-O-methylerythromycin A]", "Tmax", "2 h"]
]}

====

assay: Blood concentration of TE-031 after oral administration to Beagle dogs (bioassay method); format: in vivo; conditions: dog, male Beagle dogs, 100 mg as TE-031, read-out: maximum blood level

{"columns": ["Smiles Representation", "Unit Of Measurement", "Cmax"],
 "data": [
  ["CC[C@H]1OC(=O)[C@H](C)[C@@H](O[C@H]2C[C@@](C)(OC)[C@@H](O)[C@H](C)O2)[C@H](C)[C@@H](O[C@@H]2O[C@H](C)C[C@H](N(C)C)[C@H]2O)[C@](C)(OC)C[C@@H](C)C(=O)[C@H](C)[C@@H](O)[C@]1(C)O", "ng/mL", 3060]
]}
